- Test system: Fibroblast
- procedure.details: Multiplex assay against human fibroblast
- Type: toxicity, cell-based
- stated.conditions: 48 h, 1 µM, compound concentration 1 uM, replicate 2
measure: Population Healthy Nuclei (%)
Returns: string containing the number followed by the unit.

Previously resolved entries follow.
>>> readout_value("CSCC[C@H](NC=O)C(=O)N[C@@H](CC(C)C)C(=O)N[C@@H](Cc1ccccc1)C(=O)O")
"47%"
>>> readout_value("Cc1ccc(C(C)(O)c2nc3ccccc3s2)c(C)c1 (centres undefined)")
"57%"
>>> readout_value("CN1CCN2c3ncccc3Cc3ccccc3C2C1 (centres undefined) [MIRTAZAPINE]")
"45%"

Hello, I would appreciate it if you could give Population Healthy Nuclei (%) for each entry below.
1. CCCN1CCC[C@@H]2Cc3n[nH]cc3C[C@H]21.Cl [QUINPIROLE HYDROCHLORIDE]
2. CC1(COc2ccc3c(c2)ncn3-c2ccc3cccc(N4CCC(N)CC4)c3n2)COC1 [CRENOLANIB]
3. O=S(=O)(c1ccccc1)c1cnc2c(N3CCNCC3)cccc2c1 [INTEPIRDINE]
4. Cc1ccccc1C(=O)Nc1ccc(C(=O)N2CCCC(N(C)C)c3ccccc32)cc1.Cl (centres undefined)
5. COc1c(C)cc(NC(=O)c2nn(Cc3ccc(F)cc3)c3c2CN(C(=O)c2ccc[nH]2)C[C@]3(C)C(N)=O)cc1C
6. Cc1nc2ccc(Oc3ccc(F)cc3)cc2c(=O)n1C[C@H]1CCCN(C(C)C)C1.Cl

Found:
1. 53%
2. 44%
3. 45%
4. 50%
5. 45%
6. 44%
